Measured % of fluorescence positive cells accompanies every entry in the list below.
Biological target: T1, recombinant hIL-18Rα extracellular domain (human, UniProt Q13478 22-329, biotin label (selection) or fluorescent probe (single-clone FACS), sites not given)
T1 construct: extracellular domain; also called hIL-18Rα ECD; hIL-18Rα-ECD
T1 sequence (looked up): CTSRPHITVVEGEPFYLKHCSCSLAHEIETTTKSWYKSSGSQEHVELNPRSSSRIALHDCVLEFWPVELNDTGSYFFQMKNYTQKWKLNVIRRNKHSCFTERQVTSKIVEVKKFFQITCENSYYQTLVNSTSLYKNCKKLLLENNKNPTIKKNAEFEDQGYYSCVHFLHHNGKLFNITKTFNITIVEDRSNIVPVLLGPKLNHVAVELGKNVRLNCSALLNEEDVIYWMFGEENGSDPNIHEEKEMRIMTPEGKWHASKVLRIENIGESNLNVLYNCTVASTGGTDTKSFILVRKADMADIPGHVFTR
Assay: single-clone FACS, yeast display, 10 nM labelled hIL-18Rα ECD
Number in %, nothing else.

Any idea what % of fluorescence positive cells was measured for SEQ ID NO 45 (ligand) YFPKLRSKLSVIRNLNDQVLFIDQGNRPLFEDMTDSDCRDNAPRTIFIISMYKHSYGRGMAVTISVKCEKISTLSCENKIISFKEMNPPDAIKDTKSDIIFFQTSVPGHDNKMQFESSSYEGYFLACEKERDLFKLILKKEDELGDRSIMFTVQNED ?
86.1

Any idea what % of fluorescence positive cells was measured for IL-18 variant polypeptide M19 (ligand) YFPKLKSKLSVIRNLNDQVLFIDQGNRPLFEDMTDSDCRDNAPRTIFIISMYKHSEQRGMAVTISVKCEKISTLSCENKIISFKEMNPPDAIKDTKSDIIFFQRSVPGHDNKMQFESSSYEGYFLACEKERDLFKLILKKEDELGDRSIMFTVQNED ?
90

Others:
Any idea what % of fluorescence positive cells was measured for SEQ ID NO 5 (ligand) YFPKLRSKLSVIRNLNDQVLFIDQGNRPLFEDMTDSDCRDNAPRTIFIISMYKHSTVRGMAVTISVKCEKISTLSCENKIISFKEMNPPDVIKDTKSDIIFFQRSVPGHDNKMQFESSSYEGYFLACEKERDLFKLILKKEDELGDRSIMFTVQNED ?
95.6
